B1: F1*; the commonest letter at each place (parent)
chain: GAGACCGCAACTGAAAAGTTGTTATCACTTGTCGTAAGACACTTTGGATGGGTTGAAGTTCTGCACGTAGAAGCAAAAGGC

Variants of: B1
assay-protocol: fraction ligated after 30 min (ligated reads / total reads); higher = more ligase activity
condition-details: with F1*sub RNA substrate (template-directed ligation), 42 °C
Class t: fraction ligated at least 0.8. Class f: fraction ligated below 0.8.

[
  {
    "mutant-id": "A41G G47C",
    "class-label": "f"
  },
  {
    "mutant-id": "G38T G50A",
    "class-label": "f"
  },
  {
    "mutant-id": "T32C A41G",
    "class-label": "f"
  },
  {
    "mutant-id": "T29C A57T",
    "class-label": "f"
  },
  {
    "mutant-id": "C40T C42A",
    "class-label": "t"
  },
  {
    "mutant-id": "A36G A37G",
    "class-label": "t"
  },
  {
    "mutant-id": "A41T T49A",
    "class-label": "f"
  },
  {
    "mutant-id": "G38A T45G",
    "class-label": "f"
  },
  {
    "mutant-id": "G38C A57G",
    "class-label": "t"
  },
  {
    "mutant-id": "G31A G47T",
    "class-label": "f"
  },
  {
    "mutant-id": "A36G A57G",
    "class-label": "t"
  },
  {
    "mutant-id": "T23C T49C",
    "class-label": "f"
  },
  {
    "mutant-id": "A24C",
    "class-label": "f"
  },
  {
    "mutant-id": "A41C T45A",
    "class-label": "f"
  },
  {
    "mutant-id": "G55C A56G",
    "class-label": "t"
  },
  {
    "mutant-id": "T45A T49C",
    "class-label": "f"
  },
  {
    "mutant-id": "A39C T49G",
    "class-label": "f"
  },
  {
    "mutant-id": "C26G T49A",
    "class-label": "f"
  },
  {
    "mutant-id": "C26A G38A",
    "class-label": "f"
  },
  {
    "mutant-id": "G31C T45A",
    "class-label": "f"
  },
  {
    "mutant-id": "C33T G55T",
    "class-label": "t"
  },
  {
    "mutant-id": "G38T A56T",
    "class-label": "t"
  },
  {
    "mutant-id": "A24T A56C",
    "class-label": "f"
  },
  {
    "mutant-id": "G34C A48G",
    "class-label": "f"
  },
  {
    "mutant-id": "A36G C40A",
    "class-label": "t"
  },
  {
    "mutant-id": "T29A G31A",
    "class-label": "t"
  },
  {
    "mutant-id": "A27C G38T",
    "class-label": "t"
  },
  {
    "mutant-id": "T45A A48G",
    "class-label": "f"
  }
]

The origin of these recorded values is the supplement of paper PMC6755084.
